Source: patent US10358437B2

Target under test: PCAF bromodomain (Homo sapiens, UniProt Q92831)
Construct: Flag
Sequence (Q92831 719-832): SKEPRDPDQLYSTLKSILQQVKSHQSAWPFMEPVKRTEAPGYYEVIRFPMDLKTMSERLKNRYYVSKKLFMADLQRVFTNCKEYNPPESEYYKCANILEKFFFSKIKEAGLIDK
Assay details: PCAF AlphaLisa binding assay
Study conditions: His/Flag tagged PCAF719-832 bromodomain 225 nM, biotinylated small molecule ligand 6 nM
Structures can show the parent of a compound that is named as a salt.
Recorded metric: pIC50
Answers are plain numbers, as −log10 of the molar value.

Batch: pIC50 for all items listed.
1. CN(C)C(C)(CNc1nn(C)c(=O)n(C)c1=O)c1ccccc1 (racemic)
2. Cn1nc(NCC(c2ccccc2)N2CCCC2)c(=O)n(C)c1=O (racemic)
3. CCn1nc(NCC(c2ccccc2)N(C)C)c(=O)n(CC)c1=O (racemic)
4. COc1ccc(C(CNc2nn(C)c(=O)n(C)c2=O)N(C)C)cc1 (racemic)
5. CN1CCc2ccccc2C1CNc1nn(C)c(=O)n(C)c1=O (racemic)
6. CN(C)C(CNc1nn(C)c(=O)n(C)c1=O)c1ccc(F)cc1 (racemic)
7. CN(C)C(CNc1nn(C)c(=O)n(C)c1=O)Cc1ccccc1 (racemic)
8. CN(CCNc1nn(C)c(=O)n(C)c1=O)Cc1ccccc1

Reply:
6.32
5.09
4.92
6.82
5.92
6.55
5.85
5.12

Batch: pIC50 for all items listed.
1. CN(C)CCN(C)c1nn(C)c(=O)n(C)c1=O [Example 7, (trifluoroacetic acid salt)]
2. CN(C)C(CNc1nn(C)c(=O)n(C)c1=O)c1cccc(Cl)c1 (racemic)
3. CN1Cc2ccccc2CC1CNc1nn(C)c(=O)n(C)c1=O (racemic)
4. C[C@H](Nc1nn(C)c(=O)n(C)c1=O)[C@H](c1ccccc1)N(C)C (single isomer, unassigned)
5. C[C@H](Nc1nn(C)c(=O)n(C)c1=O)[C@H](c1ccc(S(=O)(=O)c2ccccc2)cc1)N(C)C (single isomer, unassigned)

Reply:
4.43
6.37
6.42
6.92
7.15

Batch: pIC50 for all items listed.
1. CN(C)C(CNc1nn(C)c(=O)n(C)c1=O)c1ccc(C(F)(F)F)cc1 (racemic)
2. Cn1nc(NCCNc2ccccc2)c(=O)n(C)c1=O
3. CN(C)[C@H]1CCCC[C@H]1Nc1nn(C)c(=O)n(C)c1=O (racemic) [Example 19, hydrochloride]
4. CN(C)[C@@H]1CCCC[C@H]1Nc1nn(C)c(=O)n(C)c1=O (racemic)
5. CN1CCCC1CNc1nn(C)c(=O)n(C)c1=O (racemic)

Reply:
6.60
4.19
5.96
6.64
5.60
